- Test system: CAKI-1 renal
- protocol: NCI-60 one-dose screen, 48 h (100 = growth as untreated, 0 = no growth, -100 = all killed)
- condition_description: 10 µM unless noted
About 83,000 compounds went through this panel and 20% of them were active in at least one assay; those are over-represented in the sample as a whole.
Rule: growth of 80% or more gives class 1; anything lower gives class 0.

Before answering, review these 7 worked examples.
# compound, label
measured = [
    ("CCN(CC)Cc1cc(Nc2c3ccc(Cl)cc3nc3ccc(OC)cc23)ccc1O", "class 0"),
    ("CCN(CC)CCCNc1nc2ccccc2c2c(=O)c3cc(Cl)ccc3sc12", "class 0"),
    ("COc1cc(C(=O)N/N=C/c2cc3cc(OCc4ccccc4)ccc3nc2OC)cc(OC)c1OC", "class 1"),
    ("Cc1ccc(-c2nc3c(c(-c4ccccc4)nn3-c3ccccc3)c(-c3ccc(O)cc3)c2C#N)cc1", "class 0"),
    ("O=C(CCN1C(=O)/C(=C/c2ccc(O)cc2)SC1=S)Nc1ccccc1", "class 1"),
    ("COc1ccc([C@H]2c3cc(OC)c(OC)cc3C=C(C=O)C2CO)cc1OC (stereo not given in full)", "class 0"),
    ("Cc1ccc(/C=C(\\C#N)n2nc3cccc(F)c3n2)cc1", "class 0"),
]

Now take the following compound into account.
Query: growth >= 80% for "c1ccc2c(c1)Nc1ccncc1S2" ?
Result: class 0
